# ASSAY SYSTEM: CFTR (F508del/MF-HBE cells) (Homo sapiens, UniProt P13569, DEL508-508)
# Construct: human bronchial epithelial (HBE) cells derived from CF subjects heterozygous for F508del and a minimal function CFTR mutation (F508del/MF-HBE); endogenous in cells; host or cells: Primary human bronchial epithelial cells from CF subjects (F508del/MF genotype), differentiated at an air-liquid interface
# Sequence (P13569 with tags, fused parts or gaps DEL508-508): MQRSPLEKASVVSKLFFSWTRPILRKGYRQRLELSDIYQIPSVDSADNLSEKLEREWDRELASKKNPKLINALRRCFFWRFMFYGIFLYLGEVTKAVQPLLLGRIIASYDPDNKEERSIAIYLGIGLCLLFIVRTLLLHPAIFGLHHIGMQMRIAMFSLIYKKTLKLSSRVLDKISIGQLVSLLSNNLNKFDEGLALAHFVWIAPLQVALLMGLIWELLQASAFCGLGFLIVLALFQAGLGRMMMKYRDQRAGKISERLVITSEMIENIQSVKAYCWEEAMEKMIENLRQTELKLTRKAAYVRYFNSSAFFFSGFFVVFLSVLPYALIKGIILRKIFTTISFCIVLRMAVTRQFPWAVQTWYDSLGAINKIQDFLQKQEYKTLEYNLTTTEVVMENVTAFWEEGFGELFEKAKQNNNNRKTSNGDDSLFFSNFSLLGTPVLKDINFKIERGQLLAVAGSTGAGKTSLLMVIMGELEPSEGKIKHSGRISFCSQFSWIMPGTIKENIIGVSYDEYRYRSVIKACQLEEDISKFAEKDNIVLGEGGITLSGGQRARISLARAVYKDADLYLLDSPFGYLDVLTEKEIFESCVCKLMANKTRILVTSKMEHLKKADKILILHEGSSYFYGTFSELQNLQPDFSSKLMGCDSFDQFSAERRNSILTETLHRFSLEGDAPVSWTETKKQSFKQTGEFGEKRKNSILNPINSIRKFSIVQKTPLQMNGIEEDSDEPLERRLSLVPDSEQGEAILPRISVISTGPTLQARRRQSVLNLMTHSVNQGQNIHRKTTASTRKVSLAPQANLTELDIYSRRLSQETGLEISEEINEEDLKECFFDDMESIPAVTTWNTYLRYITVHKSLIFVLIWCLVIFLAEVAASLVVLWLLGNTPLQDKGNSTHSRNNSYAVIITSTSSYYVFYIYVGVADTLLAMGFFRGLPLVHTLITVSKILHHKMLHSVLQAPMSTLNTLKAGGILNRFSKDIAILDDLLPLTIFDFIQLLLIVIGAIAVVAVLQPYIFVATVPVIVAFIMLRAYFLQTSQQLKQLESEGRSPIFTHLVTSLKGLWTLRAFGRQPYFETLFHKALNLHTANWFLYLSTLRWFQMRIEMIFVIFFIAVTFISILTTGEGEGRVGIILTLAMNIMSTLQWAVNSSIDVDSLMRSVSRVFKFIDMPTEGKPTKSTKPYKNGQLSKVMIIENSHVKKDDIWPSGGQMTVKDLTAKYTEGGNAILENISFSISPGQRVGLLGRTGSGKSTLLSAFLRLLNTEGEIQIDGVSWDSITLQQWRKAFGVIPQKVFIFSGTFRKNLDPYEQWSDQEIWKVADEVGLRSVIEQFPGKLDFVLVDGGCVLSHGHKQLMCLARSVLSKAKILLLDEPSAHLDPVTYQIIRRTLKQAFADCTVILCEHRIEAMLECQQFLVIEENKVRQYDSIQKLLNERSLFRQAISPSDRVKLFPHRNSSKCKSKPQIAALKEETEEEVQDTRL
# PROCEDURE SUMMARY: Ussing chamber assay of CFTR-mediated short-circuit currents, Assay B (0.00001 μM to 25 μM, 12 concentrations)
# Format: cell-based
# CONDITION SET: with 33 nM potentiator and 18 μM Tezacaftor, 20% human serum
pEC50: −log10 of the molar value.
METRIC NAME: pEC50

Before answering, review these 3 worked examples.
{"COMPOUND": "Cc1cccc(C)c1-c1cc2nc(n1)NS(=O)(=O)c1cccc(c1)C(=O)N(Cc1cnc3oc(C4CCC4)cc3n1)[C@H](COC(C)C)CO2", "pEC50": "4.52 to 5.52"}
{"COMPOUND": "Cc1cccc(C)c1-c1cc2nc(n1)NS(=O)(=O)c1cccc(c1)C(=O)N(Cc1cnc3oc(C4(C)CC4)cc3n1)[C@H](CC13CC(C1)C3)CO2", "pEC50": "5.52 to 6.00"}
{"COMPOUND": "Cc1cccc(CC(C)C)c1-c1nc2nc(c1C)OC[C@@H](CC(C)(C)C)N(Cc1cnc3cc(C(C)(C)C)n(C)c3n1)C(=O)c1cccc(c1)S(=O)(=O)N2", "pEC50": "> 6.00"}

## Task Using the record for COCCc1c(C(C)(C)C)n(C)c2nc(CN3C(=O)c4cccc(c4)S(=O)(=O)Nc4nc(c(OC)c(-c5c(C)cccc5CC(C)C)n4)OC[C@H]3CC(C)(C)C)cnc12 (atropisomer, axis not shown) , report its pEC50.
## Result > 6.00

## Task Please report the recorded pEC50 for Cc1cccc(C)c1-c1cc2nc(n1)NS(=O)(=O)c1cccc(c1)C(=O)N(Cc1cnc3oc(C(C)C)cc3n1)[C@H](CC1CC1)CO2 .
## Result 4.52 to 5.52
